Catalogue of mortality at 0.156 µg/mL readings, one per entry.
# Tested on: Diamondback moth
# Experimental protocol: Insecticidal activity against Diamondback moth, Airbrush spray on cabbage leaf discs
# Assay type: in vivo
# Measurement conditions: Plutella xylostella, foliar, 72 h; 0.156 mg/L, 3 days after the administration, Diamondback moth; read-out: Mortality rate (%, 3 days after the administration) 0.156 mg/L
Measurement label: mortality at 0.156 µg/mL (%)

molecule=C#CCN(C(=O)c1ccc(F)nc1)c1cccc(C(=O)Nc2c(I)cc(C(F)(C(F)(F)F)C(F)(F)F)cc2C(F)(F)F)c1F recorded_measurement=100
molecule=C=CCN(C(=O)c1ccccc1)c1cccc(C(=O)Nc2c(Br)cc(C(F)(C(F)(F)F)C(F)(F)F)cc2C(F)(F)F)c1F recorded_measurement=100
molecule=C#CCN(C(=O)c1ccc(F)cc1)c1cccc(C(=O)Nc2c(I)cc(C(F)(C(F)(F)F)C(F)(F)F)cc2C(F)(F)F)c1F recorded_measurement=100
molecule=C#CCN(C(=O)c1ccc(F)nc1)c1cccc(C(=O)Nc2c(Br)cc(C(F)(C(F)(F)F)C(F)(F)F)cc2C(F)(F)F)c1F recorded_measurement=100
molecule=C=CCN(C(=O)c1ccc(F)cc1)c1cccc(C(=O)Nc2c(I)cc(C(F)(C(F)(F)F)C(F)(F)F)cc2C(F)(F)F)c1F recorded_measurement=100
molecule="CN(C(=O)c1ccc(F)nc1)c1cccc(C(=O)Nc2c(I)cc(C(F)(C(F)(F)F)C(F)(F)F)cc2C(F)(F)F)c1F [KC8, reference compound]" recorded_measurement=53.3
molecule="CN(C(=O)c1ccc(F)cc1)c1cccc(C(=O)Nc2c(I)cc(C(F)(C(F)(F)F)C(F)(F)F)cc2C(F)(F)F)c1F [KC5, reference compound]" recorded_measurement=73.3
molecule=C=CCN(C(=O)c1ccc(F)cc1)c1cccc(C(=O)Nc2c(Br)cc(C(F)(C(F)(F)F)C(F)(F)F)cc2C(F)(F)F)c1F recorded_measurement=100

====

# Test system: cat flea
# Experimental protocol: Insecticidal experiment on cat flea, thin film in culture dish
# Type: in vivo
# Measurement conditions: Ctenocephalides felis, 72 h, read-out: mortality rate, cat flea
# Description: 4 mg of the compound to be determined was dissolved in 40 mL of acetone to obtain an acetone solution with a concentration of 100 mg/L. 400 μL of the drug solution was applied on the bottom and sides of a culture dish with an inner diameter of 5.3 cm, then after acetone was evaporated, a thin film of the compound of the present invention was made on the inner wall of the culture dish. […] The number of dead insects after 72 h was checked and the mortality rate was calculated. […]
Catalogue of mortality at 1 µg/cm2 readings, one per entry.
Measurement label: mortality at 1 µg/cm2

smiles_data=C#CCN(C(=O)c1ccc(F)cc1)c1cccc(C(=O)Nc2c(Br)cc(C(F)(C(F)(F)F)C(F)(F)F)cc2C(F)(F)F)c1F assay_target="cat flea" recorded_measurement="> 90%"
smiles_data=C=CCN(C(=O)c1ccc(C#N)cc1)c1cccc(C(=O)Nc2c(I)cc(C(F)(C(F)(F)F)C(F)(F)F)cc2C(F)(F)F)c1F assay_target="cat flea" recorded_measurement="> 90%"
smiles_data=C=CCN(C(=O)c1ccc(F)nc1)c1cccc(C(=O)Nc2c(I)cc(C(F)(C(F)(F)F)C(F)(F)F)cc2C(F)(F)F)c1F assay_target="cat flea" recorded_measurement="> 90%"

src = patent US20240199552A1
